Ref: ChEMBL document CHEMBL5308541

# Experiment Notes: Hit confirmation in dose-response curve in HepG2 cytotoxicity assay, at 72h
# Assay type: toxicity, cell-based, Homo sapiens
# Set-up: timepoint 72 hour
# Experimental Context: human, HepG2 cells
Would you kindly list IC50 at 72 h for each of these compounds?

Past entries and their recorded results:
CCCc1cccc(CNC2CCN(C3CCN(C)CC3)CC2)c1
> 10 µM
CN(C[C@H](O)COc1ccccc1CN1CCC(c2ccncc2)CC1)C1CCCCC1
> 10 µM
C[C@H](Nc1nc(N)c2ccccc2n1)c1cccc(-n2cncn2)c1
> 10 µM

// batch mode: one IC50 at 72 h value per listed entry
1. O[C@@H](CNCc1ccc2c(c1)CCO2)c1ccc(F)c(F)c1
2. CCN(Cc1[nH]c2ccc(Cl)cc2c1C)CC1CCN(C2CCN(C)CC2)CC1
3. COCCN1CC[C@H](CNC2CCN(c3ncc4ccc(F)cc4n3)CC2)C1

Found:
> 10 µM
> 10 µM
> 10 µM

---

# Experiment Notes: Hit confirmation in dose-response curve in HepG2 cytotoxicity assay, at 72h
# Type: toxicity, cell-based, Homo sapiens
# Design: timepoint 72 hour
# Experimental Context: human, HepG2 cells
Would you kindly list IC50 at 72 h for each of these compounds?

Cc1cc(N2CCC(NCCCN3CCCc4ccccc43)CC2)nc(N)n1
> 10 µM
N[C@H]1CC[C@@H](NC2CCN(c3ccc(F)c(F)c3)CC2)CC1
7.76 µM
Cc1nc(-c2ccccn2)nc(NC2CCN(CC(F)F)CC2)c1C
> 10 µM
O[C@@]1(c2c[nH]nn2)CCN(c2ccnc3cc(Cl)ccc23)C1
> 10 µM
CCN1C[C@H](Nc2nc(C)nc3sccc23)[C@@H](OC)C1
> 10 µM

Lookup: Please report IC50 at 72 h for the following compound: `COc1ccc2c(O)c(Br)c(C)nc2c1`
Found: > 10 µM

---

# Experiment Notes: Hit confirmation in dose-response curve in HepG2 cytotoxicity assay, at 72h
# Type: toxicity, cell-based, Homo sapiens
# Design: timepoint 72 hour
# Experimental Context: human, HepG2 cells
Measure Name: IC50 at 72 h

Past entries and their recorded results:
Fc1ccc(N2CC[C@H](CN3CCC(c4c[nH]c5ccccc45)(c4c[nH]c5ccccc45)CC3)C2)cc1
> 10 µM
Cc1sc2nc(-c3ccccn3)nc(NCCc3nccn3C)c2c1-c1ccccc1
8.32 µM
COc1ccc2cc(-c3cc(N)ccn3)[nH]c2c1
> 10 µM
CCOc1cccc(N2CCN(C(=O)c3cc(-c4ccc(F)cc4)[nH]n3)CC2)n1
> 10 µM

Field: next compound
Lookup: Please report IC50 at 72 h for the following compound: `CC(C)(C)c1ccc(CNC[C@H](O)c2ccc(F)cc2F)cc1`
Found: > 10 µM

---

# Experiment Notes: Re-testing in dose-response curve in HepG2 cytotoxicity assay, at 72h
# Type: toxicity, cell-based, Homo sapiens
# Parameters: timepoint 72 hour
# Experimental Context: human, HepG2 cells
Measure Name: IC50 at 72 h

Cc1ccc(-c2cccc3c(C(=O)NCCCN4CCC(N5CCCCC5)CC4)cc(C)nc23)cc1
4.11 µM

// batch mode: one IC50 at 72 h value per listed entry
1. Cc1cnccc1NCCNCc1ccc(OC(C)C)c(Cl)c1
2. Fc1ccc(-n2cc(CNCCC3CCN(c4ccncc4)CC3)cn2)cc1
3. O=C(n1nnc2cc(Cl)c(Cl)cc21)C(F)(F)F
4. CN(C)C1CCN(CCN[C@H]2CCc3ccc(F)cc32)CC1
5. CN1CCC(Oc2ccc(NC(=O)c3cn4ccnc4s3)cn2)CC1
6. CCCc1cccc(CNC2CCN(C3CCN(C)CC3)CC2)c1
7. CCOc1cc(C(=O)NC2CCN(CC3CCCC3)CC2)cc(-c2ccccc2)c1OC
8. CN(C)C1(CNc2nc(C(F)(F)F)nc3cc(F)ccc23)CCCCCC1

Found:
["6.65 µM", "5.11 µM", "21 µM", "> 25 µM", "> 25 µM", "11 µM", "10 µM", "8.91 µM"]

Lookup: Please report IC50 at 72 h for the following compound: `c1ccc(CNc2ccc(-c3noc(C45CCCN(CCC4)C5)n3)cn2)cc1`
Found: 20.4 µM
